Test: In vivo PK studies in mice
Parameters: species or system Male Balb/C mice
Conditions: male, Balb/C, mouse, plasma, PO 50 mg/kg, read-out: t1/2 PO (converted)
Method: In Vivo PK Studies in Mice All the animal experiments were approved by Institutional Animal Ethical Committee (IAEC/JDC/2015/72). Male Balb/C mice (n=24) were procured from Vivo Biotech, Hyderabad, India. […] Plasma concentration-time data of the compound was analyzed by non-compartmental method using Phoenix WinNonlin Version 6.3 (Pharsight Corporation, Mountain View, Calif.).
Structures can show the parent of a compound that is named as a salt.
# half-life annotations

Report half-life for Cn1cc(-c2ccc(C3CC3NCC3CCN(Cc4ccc(C(=O)Nc5ccccc5N)cc4)CC3)cc2)cn1 (centres unmarked) [Example 142, TFA Salt] please.
6.7 h

Now examine the next entry.
Report half-life for O=C(NO)c1ccc(CCCN2CCC(CNC3CC3c3ccc(-c4cncnc4)cc3)CC2)cc1 (centres unmarked) [Example 61, TFA Salt] please.
1.48 h

====

target: LSD1 (Homo sapiens (Human), UniProt O60341); experiment: TR-FRET Assay for LSD1; conditions: read-out: LSD1 IC50
Where a name gives a salt, the structure may show the parent alone.
attribute.measured: log10(IC50) (log10 of the value in nM)
Note: values are log10 of IC50 expressed in nM.

Please review the entries below; each comes with its answer.
Report log10(IC50) for Nc1ccccc1NC(=O)c1ccc(S(=O)(=O)N2CCC(CNC3CC3c3ccccc3)CC2)cc1 (stereo not shown) [Example 160, TFA Salt] please.
1.63

Report log10(IC50) for O=C(NO)c1ccc(CCCN2CCC(CNC3CC3c3ccc(-c4ccc(C(F)(F)F)nc4)cc3)CC2)cc1 (stereo not shown) [Example 66, TFA Salt] please.
1.28

Report log10(IC50) for O=C(NO)c1cnc(CCCN2CCC(CNC3CC3c3ccccc3)CC2)s1 (stereo not shown) [Example 112, TFA Salt] please.
1.34

Report log10(IC50) for O=C(NO)c1ccc(CN2CCn3cc(CNC4CC4c4ccc(F)cc4)nc3C2)cc1 (stereo not shown) [Example 80, TFA Salt] please.
3.18

New cases:
Report log10(IC50) for O=C(NO)c1ccc(/C=C/C(=O)N2CCC(CNC3CC3c3ccc(-c4cncnc4)cc3)CC2)cc1 (stereo not shown) [Example 117, TFA Salt] please.
1.66

Report log10(IC50) for Nc1ccccc1NC(=O)c1ccc(CCC(=O)N2CCC(CNC3CC3c3ccccc3)CC2)cc1 (stereo not shown) [Example 134, TFA Salt] please.
1.62

Report log10(IC50) for N#Cc1ccc(-c2ccc(C3CC3NCC3CCN(CCCc4ccc(C(=O)NO)cc4)CC3)cc2)cc1 (stereo not shown) [Example 59, TFA Salt] please.
1.51

====

test: Metabolic stability in liver microsomes, MLM; details: 1 μM, NADPH
Where a name gives a salt, the structure may show the parent alone.
Classes (Metabolic stability MLM % remaining in 30 min): L (below 50%), M (50% to below 80%), H (80% or more)

Which of the defined bands does the recorded Metabolic stability MLM % remaining in 30 min of Nc1ccccc1NC(=O)c1ccc(CNC(=O)N2CCC(CNC3CC3c3ccc(F)cc3)CC2)cc1 (stereo not drawn) [Example 158, TFA Salt] sit within?
L

Which of the defined bands does the recorded Metabolic stability MLM % remaining in 30 min of O=C(/C=C/c1ccc(CNC2CC2c2ccc(-c3cncnc3)cc2)cc1)NO (stereo not drawn) [Example 7, TFA Salt] sit within?
L

Which of the defined bands does the recorded Metabolic stability MLM % remaining in 30 min of Nc1ccccc1NC(=O)c1ccc(/C=C/C(=O)N2CC(CNC3CC3c3ccc(F)cc3)C2)cc1 (stereo not drawn) [Example 157, TFA Salt] sit within?
M

Which of the defined bands does the recorded Metabolic stability MLM % remaining in 30 min of Nc1ccccc1NC(=O)c1ccc2c(c1)CN(C(=O)CNC1CC1c1ccc(F)cc1)CC2 (stereo not drawn) [Example 152, TFA Salt] sit within?
L

Which of the defined bands does the recorded Metabolic stability MLM % remaining in 30 min of O=C(NO)c1cnc(N2CCC(CN[C@@H]3C[C@H]3c3ccc(F)cc3)CC2)nc1 [Example 20, TFA Salt] sit within?
M

Which of the defined bands does the recorded Metabolic stability MLM % remaining in 30 min of O=C(NO)c1cnc(N2CCC(NC3CC3c3ccc(OCc4ccc(F)cc4)cc3)CC2)nc1 (stereo not drawn) [Example 12, TFA Salt] sit within?
H

Which of the defined bands does the recorded Metabolic stability MLM % remaining in 30 min of COc1ccc(C2CC2NCc2cn3c(n2)CN(CCCc2ccc(C(=O)NO)cc2)CC3)cc1 (stereo not drawn) [Example 71, TFA Salt] sit within?
L

Which of the defined bands does the recorded Metabolic stability MLM % remaining in 30 min of O=C(NO)c1cc2c(s1)CCN(C(=O)CCCN1CCC(CNC3CC3c3ccc(F)cc3)CC1)C2 (stereo not drawn) [Example 106, TFA Salt] sit within?
H

Below: the item to evaluate.
Which of the defined bands does the recorded Metabolic stability MLM % remaining in 30 min of O=C(NO)c1ccc(CN2CCn3cc(CNC4CC4c4ccc(F)cc4)nc3C2)cc1 (stereo not drawn) [Example 80, TFA Salt] sit within?
H

====

assay: In vivo PK studies in mice; set-up: species or system Male Balb/C mice; settings: male, Balb/C, mouse, plasma, IV 2 mg/kg, read-out: Cl IV
Where a name gives a salt, the structure may show the parent alone.
attribute.measured: clearance (mL/min/kg)
Response body: numeric value in mL/min/kg, unit text excluded.

Report clearance for O=C(NO)c1ccc(/C=C/C(=O)N2CCC(CN[C@@H]3C[C@H]3c3ccc(F)cc3)CC2)cc1 [Example 115A, TFA Salt] please.
108

New cases:
Report clearance for O=C(NO)c1ccc(CCCN2CCC(CNC3CC3c3ccc(-c4ccc(F)cc4)cc3)CC2)cc1 (stereo not drawn) [Example 57, TFA Salt] please.
190

Report clearance for Cn1cc(-c2ccc(C3CC3NCC3CCN(Cc4ccc(C(=O)Nc5ccccc5N)cc4)CC3)cc2)cn1 (stereo not drawn) [Example 142, TFA Salt] please.
88

====

assay: Metabolic stability in liver microsomes, MLM; settings: 1 μM, NADPH
Structures can show the parent of a compound that is named as a salt.
Quick rule for you: Metabolic stability MLM % remaining in 30 min under 60% gets yes, anything else gets no.

Decide: Metabolic stability MLM % remaining in 30 min of O=C(NO)c1ccc(CCCN2CCC(CNC3CC3c3ccc(F)c(F)c3)CC2)cc1 (stereo not drawn) [Example 50, TFA Salt] strictly below 60%?
no

Decide: Metabolic stability MLM % remaining in 30 min of Nc1ccccc1NC(=O)c1ccc(CC(=O)N2CCC(CNC3CC3c3ccc(F)cc3)CC2)cc1 (stereo not drawn) [Example 147, TFA Salt] strictly below 60%?
yes

Decide: Metabolic stability MLM % remaining in 30 min of O=C(NO)c1ccc(CC(=O)N2CCC(CN[C@H]3C[C@@H]3c3ccccc3)CC2)cc1 [Example 84B, TFA Salt] strictly below 60%?
yes

New cases:
Decide: Metabolic stability MLM % remaining in 30 min of O=C(NO)c1ccc(CCCN2CCc3cc(CNC4CC4c4ccc(F)cc4)ccc3C2)cc1 (stereo not drawn) [Example 78, TFA Salt] strictly below 60%?
yes

Decide: Metabolic stability MLM % remaining in 30 min of O=C(NO)c1cc2c(s1)CCN(C(=O)CN[C@H]1C[C@@H]1c1ccc(F)cc1)C2 [Example 103B, TFA Salt] strictly below 60%?
no

====

# pIC50 annotations
target: LSD1 (Homo sapiens (Human), UniProt O60341); assay: TR-FRET Assay for LSD1; conditions: read-out: LSD1 IC50
Counter-ions that a name gives are not always drawn.
Hey, just a heads up that pIC50 is the negative log base 10 of the concentration in molar.

Please review the entries below; each comes with its answer.
Report pIC50 for O=C(NO)c1cccc(CNC2CC2c2ccccc2)c1 (stereo not shown) [Example 27, TFA] please.
7.80

Report pIC50 for Nc1ccccc1NC(=O)c1ccc(Cn2cc(CNC3CC3c3ccccc3)nn2)cc1 (stereo not shown) [Example 146, TFA Salt] please.
7.16

Report pIC50 for Nc1ccccc1NC(=O)c1ccc(/C=C/C(=O)N2CC(CNC3CC3c3ccc(F)cc3)C2)cc1 (stereo not shown) [Example 157, TFA Salt] please.
7.24

Now examine the next entry.
Report pIC50 for O=C(NO)c1ccc(/C=C/C(=O)N2CCC(CN[C@@H]3C[C@H]3c3ccc(F)cc3)CC2)cc1 [Example 115A, TFA Salt] please.
6.65

====

molecular target: LSD1 (Homo sapiens (Human)); test: TR-FRET Assay for LSD1; conditions: read-out: LSD1 IC50
Counter-ions that a name gives are not always drawn.
Quick rule for you: IC50 under 30 nM gets TRUE, anything else gets FALSE.

Answered cases to consult:
Decide: IC50 of COc1ccc(C2CC2NCC2CCN(CCCc3ccc(C(=O)NO)cc3)CC2)cc1 (stereo not shown) [Example 51, TFA Salt] strictly below 30 nM?
TRUE

Decide: IC50 of Cn1ccc(-c2ccc(C3CC3NCC3CCN(CCCc4ccc(C(=O)NO)cc4)CC3)cc2)cc1=O (stereo not shown) [Example 60, TFA Salt] strictly below 30 nM?
TRUE

Decide: IC50 of Nc1ccccc1NC(=O)c1ccc(Cn2cc(CNC3CC3c3ccccc3)cn2)cc1 (stereo not shown) [Example 145, TFA Salt] strictly below 30 nM?
FALSE

Decide: IC50 of Nc1ccccc1NC(=O)c1cnc(NCCN2CCC(CNC3CC3c3ccc(F)cc3)CC2)nc1 (stereo not shown) [Example 150, TFA Salt] strictly below 30 nM?
TRUE

Decide: IC50 of O=C(NO)c1ccc(CCCn2cc(CNC3CC3c3ccccc3)nn2)cc1 (stereo not shown) [Example 77, TFA Salt] strictly below 30 nM?
FALSE

Below: the item to evaluate.
Decide: IC50 of CC(NC1CC1c1ccccc1)[C@H]1CC[C@H](C(=O)NO)CC1 (stereo partly shown) [Example 34, TFA Salt] strictly below 30 nM?
FALSE

Data provenance: patent US11352322B2
